# Assay Info: Clearance in fasted Beagle dog at 0.25 mg/kg, iv and 0.5 mg/kg, po
# Format: ADME, organism-based, Canis lupus familiaris
# Test Parameters: in vivo
Measured Quantity: clearance (mL/min/kg)

(a) O=C(O)CCNC(=O)c1ccc(CN(c2ccc3c(c2)CCCC3)c2nc(-c3ccc(Cl)c(Cl)c3)cs2)cc1
(b) O=C(O)CCNC(=O)c1ccc(CN(c2ccc(C(F)(F)F)cc2)c2nc(-c3ccc(Cl)cc3)cs2)cc1
(c) O=C(O)CCNC(=O)c1ccc(CN(c2ccc(Cl)cc2)c2nc(-c3ccc(C(F)(F)F)cc3)cs2)cc1
Task: Rank the items above by clearance, largest value first. Return value: ordered labels per request.
Output: c, b, a
